These measurements were taken from patent US11447466B2.

Target: human TLR7 (Homo sapiens)
Sequence (Q9NYK1 27-1049): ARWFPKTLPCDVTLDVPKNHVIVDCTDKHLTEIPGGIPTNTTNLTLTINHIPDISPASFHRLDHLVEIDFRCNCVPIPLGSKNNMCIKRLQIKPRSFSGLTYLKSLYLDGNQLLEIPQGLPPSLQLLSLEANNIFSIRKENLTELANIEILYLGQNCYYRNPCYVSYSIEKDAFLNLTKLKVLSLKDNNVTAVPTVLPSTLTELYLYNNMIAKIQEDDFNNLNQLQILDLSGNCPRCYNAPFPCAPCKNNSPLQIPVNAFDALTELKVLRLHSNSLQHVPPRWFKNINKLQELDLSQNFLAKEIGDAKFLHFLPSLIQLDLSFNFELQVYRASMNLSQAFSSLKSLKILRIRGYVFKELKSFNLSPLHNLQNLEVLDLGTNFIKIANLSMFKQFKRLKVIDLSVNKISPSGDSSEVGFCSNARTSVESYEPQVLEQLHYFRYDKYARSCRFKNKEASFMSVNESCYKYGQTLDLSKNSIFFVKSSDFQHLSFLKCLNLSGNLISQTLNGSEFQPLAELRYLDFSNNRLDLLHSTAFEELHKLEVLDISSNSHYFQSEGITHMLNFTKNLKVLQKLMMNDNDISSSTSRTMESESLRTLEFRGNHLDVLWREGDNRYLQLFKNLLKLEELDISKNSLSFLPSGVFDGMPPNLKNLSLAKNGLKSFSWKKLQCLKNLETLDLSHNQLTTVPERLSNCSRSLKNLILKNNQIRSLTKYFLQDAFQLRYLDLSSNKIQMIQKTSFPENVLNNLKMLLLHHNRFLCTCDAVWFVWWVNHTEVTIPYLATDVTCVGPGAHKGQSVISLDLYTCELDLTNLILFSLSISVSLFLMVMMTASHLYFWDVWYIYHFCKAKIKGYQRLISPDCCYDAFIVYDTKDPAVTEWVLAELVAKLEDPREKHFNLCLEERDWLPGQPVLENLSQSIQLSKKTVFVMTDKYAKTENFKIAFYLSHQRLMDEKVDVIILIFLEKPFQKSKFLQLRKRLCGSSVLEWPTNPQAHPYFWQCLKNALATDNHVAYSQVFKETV
Experiment: TLR7 inhibition reporter assay (HEK-Blue SEAP reporter, gardiquimod stimulation)
Details: HEK-Blue cells overexpressing human TLR7, SEAP reporter, gardiquimod 7.5 μM, 22 hour incubation
pIC50: −log10 of the molar value.
Criterion: pIC50 meeting or surpassing 8. Met: satisfied. Not met: not satisfied.

Some solved entries appear below for comparison.
*Q* In plain terms: is recorded pIC50 at least 8 for Cc1cc(-c2[nH]c3ccc(C4CCN(C(=O)CN5CCCC5=O)CC4)cc3c2C(C)C)cn(C)c1=O ?
*A* not satisfied

*Q* In plain terms: is recorded pIC50 at least 8 for Cc1cc(-c2[nH]c3ccc(C4CCN(Cc5ccn(C)n5)CC4)cc3c2C(C)C)cn(C)c1=O ?
*A* satisfied

*Q* State whether the measured pIC50 reaches 8, counting equality as reaching it, for COc1cc(-c2[nH]c3ccc(C4CCN(C5COC5)CC4)cc3c2C(C)C)c(C)n(C)c1=O
*A* not satisfied

*Q* Is it the case that Cc1cc(-c2[nH]c3ccc(C4CCN(C5CCC(C(C)(C)O)CC5)CC4)cc3c2C(C)C)cn(C)c1=O (stereo not shown) [Example 270] has pIC50 reaching or exceeding 8?
*A* satisfied

New cases:
*Q* Threshold query (pIC50 >= 8) on Cc1cc(-c2[nH]c3ccc(C4CCN(CCC(C(F)(F)F)C(F)(F)F)CC4)cc3c2C(C)C)cn(C)c1=O
*A* not satisfied
